The measured values listed here are drawn from patent US12122761B2.

- system: Cloned human M1 receptor (CHRM1) stably expressed in HEK293 cells (Homo sapiens, UniProt P11229)
- experimentNotes: CHRM1 Ca++ Flux Assay (agonist mode, FDSS 7000EX)
- conditionDescription: geometric mean if tested more than once
pEC50: −log10 of the molar value.
endpointName: pEC50

Use these answered entries as a reference point.
>>> df
                                   compound  endpointname  reportedresult
0  CCOc1ccccc1C1CCN([C@@H]2CCC3(C2)CN(C(=O)C2(F)CC2)C3)CC1 (single isomer, unassigned)         pEC50          < 4.60
1  COc1ccccc1C1CCN([C@@H]2CCC3(C2)CN(c2cnccn2)C3)CC1         pEC50            7.32

The compound listed as COc1ccccc1C1CCN([C@@H]2CCC3(C2)CN(c2nc(C)ns2)C3)CC1 shows pEC50 equal to < 4.60

---

- system: Cloned human M1 receptor (CHRM1) stably expressed in HEK293 cells (Homo sapiens, UniProt P11229)
- Construct: expressed in transfected cells; host or cells: HEK293
- Sequence (P11229 1-460): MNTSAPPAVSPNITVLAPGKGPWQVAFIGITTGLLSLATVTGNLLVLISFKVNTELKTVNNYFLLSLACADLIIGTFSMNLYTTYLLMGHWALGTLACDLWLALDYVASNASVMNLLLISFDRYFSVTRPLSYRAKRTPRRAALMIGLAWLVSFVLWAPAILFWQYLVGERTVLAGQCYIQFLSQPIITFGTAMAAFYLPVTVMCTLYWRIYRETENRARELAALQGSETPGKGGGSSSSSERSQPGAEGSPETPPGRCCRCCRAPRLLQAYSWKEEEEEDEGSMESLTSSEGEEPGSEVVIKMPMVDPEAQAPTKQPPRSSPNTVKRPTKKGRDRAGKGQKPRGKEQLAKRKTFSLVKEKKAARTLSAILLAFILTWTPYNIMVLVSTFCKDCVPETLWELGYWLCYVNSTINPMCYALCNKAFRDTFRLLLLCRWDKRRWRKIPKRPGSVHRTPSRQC
- experimentNotes: CHRM1 Ca++ Flux Assay (agonist mode, FDSS 7000EX)
- Format: cell-based
- conditionDescription: Percent Activity
endpointName: M1 FDSS PA (%)

                                   compound  endpointname  reportedresult
0  Cc1nnc(COc2ccccc2C2CCN([C@@H]3CCC4(C3)CN(C(=O)C3(F)CC3)C4)CC2)s1 (single isomer, unassigned)    M1 FDSS PA               0
1  Cc1noc(C)c1COc1ccccc1C1CCN([C@@H]2CCC3(C2)CN(C(=O)C2(F)CC2)C3)CC1 (single isomer, unassigned)    M1 FDSS PA               0
2  COc1ccccc1C1CCN([C@H]2CCC3(C2)CN(c2ncco2)C3)CC1 (single isomer, unassigned) [Example 10I]    M1 FDSS PA               0

---

- system: Cloned human M1 receptor (CHRM1) stably expressed in HEK293 cells (Homo sapiens, UniProt P11229)
- Construct: expressed in transfected cells; host or cells: HEK293
- experimentNotes: CHRM1 Ca++ Flux Assay (agonist mode, FDSS 7000EX)
- Type: cell-based
- conditionDescription: HEK293, Percent Activity, read-out: M1 FDSS PA
endpointName: Emax (%)

(P) Fc1cncc(N2CC3(CC[C@@H](N4CCC(c5ccccc5C5CCOCC5)CC4)C3)C2)c1
(Q) Cc1coc(N2CC3(CC[C@@H](N4CCC(c5ccc(F)cc5OCC(C)(C)O)CC4)C3)C2)n1
Task for the reader: decide whether P or Q has the larger Emax. # reply format: chosen label P
(P: 61%, Q: 0%)

---

- system: human cloned CHRM5 receptor (M5_CHO) (Homo sapiens, UniProt P08912)
- Construct: expressed in transfected cells; host or cells: CHO (M5_CHO)
- Sequence (P08912 whole entry): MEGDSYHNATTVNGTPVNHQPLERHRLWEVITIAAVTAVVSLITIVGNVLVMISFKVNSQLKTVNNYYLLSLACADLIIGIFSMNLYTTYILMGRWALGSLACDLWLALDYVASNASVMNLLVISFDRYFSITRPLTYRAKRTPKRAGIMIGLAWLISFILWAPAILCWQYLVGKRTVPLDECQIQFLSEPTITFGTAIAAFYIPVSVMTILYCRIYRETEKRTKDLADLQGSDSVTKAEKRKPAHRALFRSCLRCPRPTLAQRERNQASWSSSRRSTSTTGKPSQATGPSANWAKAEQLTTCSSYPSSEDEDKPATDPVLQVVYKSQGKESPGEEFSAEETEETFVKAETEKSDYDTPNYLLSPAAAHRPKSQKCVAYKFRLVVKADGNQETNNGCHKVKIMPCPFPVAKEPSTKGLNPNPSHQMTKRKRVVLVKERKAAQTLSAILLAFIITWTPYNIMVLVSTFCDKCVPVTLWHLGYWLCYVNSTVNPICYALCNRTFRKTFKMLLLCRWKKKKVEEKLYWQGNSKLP
- experimentNotes: CHRM5 Ca++ Flux Assay (agonist mode, FDSS 7000EX)
- Type: cell-based
- conditionDescription: Percent Activity measured to EC100 of Carbachol; read-out: M5 FDSS PA
endpointName: Emax (%)

>>> print(df.to_string())
                          structureassmiles  endpointname  reportedresult
0  CC(C)(O)COc1ccccc1C1CCN([C@@H]2CCC3(C2)CN(C(=O)C2COC2)C3)CC1          Emax               0
1  FC1(COc2ccccc2C2CCN([C@@H]3CCC4(C3)CN(c3nncs3)C4)CC2)CCOCC1          Emax               0
2  c1ccc(C2CCN([C@@H]3CCC4(C3)CN(c3nnco3)C4)CC2)c(-c2ncco2)c1          Emax               0
3  Fc1cccc(C2CCN([C@@H]3CCC4(C3)CN(c3nncs3)C4)CC2)c1OC1COC1          Emax               0

(A) COc1ccc(F)cc1C1CCN([C@@H]2CCC3(C2)CN(C(=O)C2COC2)C3)CC1
(B) N#CCCOc1ccccc1C1CCN([C@@H]2CCC3(C2)CN(C(=O)C2COC2)C3)CC1
(C) CC(C)(O)CCOc1ccccc1C1CCN([C@@H]2CCC3(C2)CN(C(=O)C2COC2)C3)CC1
Arrange the 3 molecules by rising Emax, starting with the smallest. A ranking is expressed here by listing the labels in the requested order. A, C, B
(A: 0%, C: 9%, B: 16%)

---

- system: human cloned CHRM2 receptor (M2_CHO cells) (Homo sapiens, UniProt P08172)
- Construct: expressed in transfected cells; host or cells: CHO-K1
- Sequence (P08172 whole entry): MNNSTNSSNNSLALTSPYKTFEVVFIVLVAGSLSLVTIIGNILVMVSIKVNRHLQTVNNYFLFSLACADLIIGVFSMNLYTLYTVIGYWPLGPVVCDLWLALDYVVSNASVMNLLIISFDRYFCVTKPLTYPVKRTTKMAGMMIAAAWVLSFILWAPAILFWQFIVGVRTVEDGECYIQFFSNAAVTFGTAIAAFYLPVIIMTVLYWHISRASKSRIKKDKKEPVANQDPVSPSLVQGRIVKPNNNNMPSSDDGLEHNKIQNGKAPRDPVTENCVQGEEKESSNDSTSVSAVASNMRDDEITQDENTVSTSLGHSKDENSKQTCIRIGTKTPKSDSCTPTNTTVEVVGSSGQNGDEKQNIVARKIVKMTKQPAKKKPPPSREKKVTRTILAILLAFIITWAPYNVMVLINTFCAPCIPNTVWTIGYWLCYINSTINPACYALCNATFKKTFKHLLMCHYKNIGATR
- experimentNotes: CHRM2 Ca++ Flux Assay (agonist mode, FDSS 7000EX)
- Assay type: cell-based
- conditionDescription: Percent Activity measured to EC100 of Carbachol; read-out: M2 FDSS PA
endpointName: Emax (%)

>>> print(df.to_string())
                                   compound  endpointname  reportedresult
0  c1ccc(C2CCN([C@@H]3CCC4(C3)CN(c3nnco3)C4)CC2)c(C2CCOCC2)c1          Emax              32
1  CC(C)COc1ccccc1C1CCN([C@@H]2CCC3(C2)CN(C(=O)C2COC2)C3)CC1          Emax               0
2  COc1ccccc1C1CCN([C@@H]2CCC3(C2)CN(c2ccc(Cl)nn2)C3)CC1          Emax              35
3  c1ccc(C2CCN([C@@H]3CCC4(C3)CN(c3nnco3)C4)CC2)c(O[C@@H]2CCOC2)c1          Emax              32
4  CC(C)Oc1cc(F)ccc1C1CCN([C@@H]2CCC3(C2)CN(C(=O)C2COC2)C3)CC1          Emax               0

(1) O=C(N1CC2(CC[C@H](N3CCC(c4ccccc4C4CCOCC4)CC3)C2)C1)C1(F)CC1 (single isomer, unassigned)
(2) O=C(C1COC1)N1CC2(CC[C@@H](N3CCC(c4ccccc4OC(F)(F)F)CC3)C2)C1 [Example 12A]
Higher Emax between 1 and 2 ? # respond with the chosen item's label 2

(1) COCCOc1ccccc1C1CCN([C@@H]2CCC3(C2)CN(c2nncs2)C3)CC1
(2) CCOc1ccccc1C1CCN([C@@H]2CCC3(C2)CN(C(=O)C2COC2)C3)CC1
(3) FC1(COc2ccccc2C2CCN([C@@H]3CCC4(C3)CN(c3nnco3)C4)CC2)CCOCC1
Could you please order the items by Emax, going from the lowest number to the highest? Your answer should be the labels, listed in the requested order. 1, 3, 2
(1: 0%, 3: 8%, 2: 33%)

---

- system: human cloned CHRM4 receptor (M4_CHO cells) (Homo sapiens)
- Construct: expressed in transfected cells; host or cells: CHO-K1
- Sequence (P08173 whole entry): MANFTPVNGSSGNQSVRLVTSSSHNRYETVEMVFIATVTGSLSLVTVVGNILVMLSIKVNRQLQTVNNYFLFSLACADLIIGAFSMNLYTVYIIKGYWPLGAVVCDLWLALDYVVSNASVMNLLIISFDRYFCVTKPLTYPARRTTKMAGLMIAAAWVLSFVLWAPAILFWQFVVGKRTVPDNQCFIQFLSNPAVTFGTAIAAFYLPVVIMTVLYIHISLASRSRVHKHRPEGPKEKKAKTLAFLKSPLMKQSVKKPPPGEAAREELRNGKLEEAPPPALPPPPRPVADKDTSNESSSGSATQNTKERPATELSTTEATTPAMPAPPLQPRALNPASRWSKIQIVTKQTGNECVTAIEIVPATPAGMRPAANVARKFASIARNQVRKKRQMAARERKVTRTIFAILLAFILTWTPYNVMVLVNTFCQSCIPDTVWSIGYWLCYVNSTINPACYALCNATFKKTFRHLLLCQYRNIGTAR
- experimentNotes: CHRM4 Ca++ Flux Assay (agonist mode, FDSS 7000EX)
- Format: cell-based
- conditionDescription: Percent Activity, read-out: M4 FDSS PA
endpointName: Emax (%)

Consider the worked cases shown below.
>>> print(df.to_string())
                                   molecule  unitname  reportedresult
0  c1ccc(C2CCOC2)c(C2CCN([C@@H]3CCC4(C3)CN(c3nnco3)C4)CC2)c1 (stereo partly shown)         %              93
1  O=C(C1COC1)N1CC2(CC[C@@H](N3CCC(c4ccccc4OC(F)(F)F)CC3)C2)C1 [Example 12A]         %              73

(A) Fc1ccc(C2CCOC2)c(C2CCN([C@@H]3CCC4(C3)CN(c3nnco3)C4)CC2)c1 (mixture of isomers)
(B) O=C(C1COC1)N1CC2(CC[C@@H](N3CCC(c4ccccc4OCCC(F)(F)F)CC3)C2)C1
# return whichever of A and B has the smaller Emax Response format: the label of the selected entry. B
(B: 48%, A: 92%)
